Exercise: for every item that follows, state its recorded melting point.

Past entries and their recorded results:
q: Requested field: melting point. Item: CNC(Cc1c[nH]c2c(Cl)cccc12)C(=O)O (stereo not given)
a: 208 to 211 °C

q: Requested field: melting point. Item: "COc1ccc(C2=NN(C3CCN(C(=O)CS(C)(=O)=O)CC3)C(=O)[C@@H]3CC=CC[C@H]23)cc1OC"
a: 169 to 170 °C

q: Requested field: melting point. Item: "CC(C)(C)OC(=O)N1CCN(C(c2ccccc2)c2ccccc2)CC1"
a: 129 to 131 °C

q: Requested field: melting point. Item: "CON=C1CN(c2cc3c(cc2F)c(=O)c(C(=O)O)cn3C2CC2)CC12CN(C(=O)OC(C)(C)C)C2"
a: 255 to 256 °C

New cases:
q: Requested field: melting point. Item: "O=C1Nc2ccc3ccccc3c2CCC1(Cl)Cl"
a: 187 to 191 °C
